Value source: PubChem BioAssay (NCATS)

Experiment: qHTS assay for environmental chemicals that activate the Aryl hydrocarbon Receptor (AhR) signaling pathway (AID 651777); note: % of control where 0% means no effect; nearly all actives have a fitted effect of over 15% in size
Settings: 1A2-DRE human hepatoma cells, luciferase, 24 h; active compounds read high
Inconclusive results are not listed.
measurementType: activation (%)
Give just the numeric value; % need not be written.

Task item: Name the reported activation value associated with the molecule CC1(C)OC[C@@H]2O[C@@]3(C(=O)O)OC(C)(C)O[C@H]3[C@@H]2O1
Reply: 1.2

Task item: Sample CCCCCCCCOc1ccc(C(=O)c2ccccc2)c(O)c1 — what was its activation?
Reply: -9.5

Task item: What measured activation goes with COc1cc([C@H]2Oc3cc([C@H]4Oc5cc(O)cc(O)c5C(=O)[C@@H]4O)ccc3O[C@@H]2CO)ccc1O ?
Reply: 0.406

Task item: Which activation reading was recorded for the molecule CCCCCCCCCCCCCCCCO ?
Reply: 1.7
